Where do these numbers come from? They come from PubChem BioAssay.

Could you please report measured z-score for the items listed next?
Assay: basal HepG2 mitochondrial membrane potential changes, profiling panel, cell-based, JC-1 fluorescence, 24 h, 100 nL compound (AID 1167); further: test concentration not given here
Conditions: higher = more signal

Input CCOC(=O)NN=C1C[C@@H](O)[C@@H](O)[C@@H]2[C@@H]3C(=O)N(CC)C(=O)[C@@H]3CC[C@H]12 , output reported z-score.
0.987

Input CCOC(=O)[C@H](CC(C)C)NC(=O)CCC1CC(OC(=O)NCCc2ccc(F)cc2)CC2(CCCC(COC(=O)NCc3cccc(C(F)(F)F)c3)O2)O1 (some centres undefined) , output reported z-score.
-0.471

Input O=C1C[C@@H](O)[C@@H](O)[C@@H]2[C@@H]3C(=O)N(c4ccc(F)cc4F)C(=O)[C@@H]3CC[C@H]12 , output reported z-score.
-0.541

Input COc1ccc(COC(=O)NN=C2C[C@@H](O)[C@@H](O)[C@@H]3[C@@H]4C(=O)N(C5CCCCC5)C(=O)[C@@H]4CC[C@@H]23)cc1 , output reported z-score.
-0.0284

Input CCOC(=O)CCN1C(=O)[C@H]2[C@H]3[C@H](O)[C@H](O)CC(=NO[C@@H]4O[C@H](CO)[C@@H](O)[C@H](O)[C@H]4O)[C@@H]3CC[C@H]2C1=O , output reported z-score.
-0.0782

Input COc1ccc(O[C@H]2C=C[C@@H](c3ccccc3)O[C@@H]2CON=C2c3cc(OC)ccc3O[C@H](c3cccc(OC)c3)[C@H]2O)cc1 , output reported z-score.
0.422

Input CC(CCN1CCc2nc(-c3ccccc3)c(-c3ccccc3)cc2C1)=NO[C@H](C)c1cn([C@H](CO)Cc2ccccc2)nn1 , output reported z-score.
2.57

Input O=C1[C@H]2[C@H]3[C@H](O)[C@H](O)CC(=NO[C@@H]4O[C@H](CO)[C@@H](O)[C@H](O)[C@H]4O)[C@@H]3CC[C@H]2C(=O)N1C1CCCCC1 , output reported z-score.
1.09

Input C[C@@H]1CC[C@H]2C(=O)O[C@@H](CN=[N+]=[N-])CN2[C@H]1c1ccc(Br)cc1 , output reported z-score.
-2.08

Input CCOC(=O)NN=C1C[C@@H](O)[C@@H](O)[C@@H]2[C@@H]3C(=O)N(c4ccc(F)cc4F)C(=O)[C@@H]3CC[C@H]12 , output reported z-score.
1.11

Input C#CCCCON=C1C[C@@H](O)[C@@H](O)[C@@H]2[C@@H]3C(=O)N(C4CCCCC4)C(=O)[C@@H]3CC[C@@H]12 , output reported z-score.
-1.32

Input CC(C)=NOC(C)CN1CCCCc2nc(C)c(C)cc21 (centres undefined) , output reported z-score.
-0.792

Input C[C@@H]1CC[C@H]2C(=O)N3[C@@H](CC[C@@H](C)[C@@H]3c3ccc(Br)cc3)C(=O)N2[C@H]1c1ccc(Br)cc1 , output reported z-score.
1.65

Input O=C1C2=CC[C@H]3C(=O)N(Cc4ccccc4)C(=O)[C@H]3[C@H]2[C@H](O)[C@@H]2O[C@H]12 , output reported z-score.
-2.12
